- Tested on: human IgG-Fc
- Assay overview: Cellulose-immobilized 13-mer peptide variants incubated with human IgG-Fc, anti-human IgG-AP detection
- Format: binding
- Parameters: key: No binding of immunoglobulin for the defined peptide variant, detection negative: 0; Binding of immunoglobulin for the defined peptide variant, detection positive: +
- Experimental parameters: IgG-Fc 1 μg/ml in blocking buffer, 3 h room temperature
Bridge positions count the residues as written; N and C are the ends. Ends that are not written are not given here. cellulose = not defined here; βAla = NCCC(=O)O
Property measured: Result for incubation with human IgG-Fc (immunoglobulin binding detection)

* 06I: cellulose-bound 13-mer variant DCAWHIGELVWCT-(βA)(βA) (DCAWHIGELVWCT-{βAla-βAla-cellulose}; disulfide 2-12 (inferred); not fully specified (N-terminus); printed as DCAWHIGELVWCT-(βA)(βA); reading uncertain) | 0
* 09E: cellulose-bound 13-mer variant DCAWHLGEEVWCT-(βA)(βA) (DCAWHLGEEVWCT-{βAla-βAla-cellulose}; disulfide 2-12 (inferred); reading uncertain; also: printed as DCAWHLGEEVWCT-(βA)(βA)) | 0
* 05M: cellulose-bound 13-mer variant DCAWMLGELVWCT-(βA)(βA) (disulfide 2-12 (inferred); not fully specified (N-terminus, C-terminus); printed as DCAWMLGELVWCT-(βA)(βA); also: cellulose-bound) | 0

###

- System: human IgG-Fc
- Assay overview: Cellulose-immobilized 13-mer peptide variants incubated with human IgG-Fc, anti-human IgG-AP detection
- Assay type: binding
- Parameters: key: No binding of immunoglobulin for the defined peptide variant, detection negative: 0; Binding of immunoglobulin for the defined peptide variant, detection positive: +
- Experimental parameters: IgG-Fc 1 μg/ml in blocking buffer, 3 h room temperature
- Procedure: Peptides consisting of 13 amino acids were synthesized by solid phase synthesis (Houghten, 1985) on a cellulose matrix with (βA)(βA) as a spacer group. The immobilized peptides were tested for their immunoglobulin binding capability by incubation with human IgG-Fc in a buffered solution and by incubation with human plasma. […]
Bridge positions count the residues as written; N and C are the ends. Square brackets hold non-standard residues; d marks the D form. Ends that are not written are not given here. cellulose = not defined here; βAla = NCCC(=O)O
Property measured: Result for incubation with human IgG-Fc (immunoglobulin binding detection)

- 01E: cellulose-bound 13-mer variant ECAWHLGELVWCT-(βA)(βA) (ECAWHLGELVWCT-{βAla-βAla-cellulose}; disulfide 2-12 (inferred); reading uncertain; also: printed as ECAWHLGELVWCT-(βA)(βA)): +
- 12E: cellulose-bound 13-mer variant DCAWHLGELVWET-(βA)(βA) (DCAWHLGELVWET-{βAla-βAla-cellulose}; not fully specified; printed as DCAWHLGELVWET-(βA)(βA); reading uncertain): 0
- 06D: cellulose-bound 13-mer variant DCAWHDGELVWCT-(βA)(βA) (DCAWHDGELVWCT[βAla][βAla]; disulfide 2-12 (inferred); not fully specified (N-terminus); printed as DCAWHDGELVWCT-(βA)(βA); also: cellulose-bound): +
- 04V: cellulose-bound 13-mer variant DCAVHLGELVWCT-(βA)(βA) (disulfide 2-12 (inferred); not fully specified (N-terminus, C-terminus); printed as DCAVHLGELVWCT-(βA)(βA); also: cellulose-bound): +

###

- Tested on: serum albumin
- Assay overview: Cellulose-immobilized 13-mer peptide variants incubated with serum albumin (negative control), anti-human IgG-AP detection
- Type: binding
- Parameters: key: No binding of immunoglobulin for the defined peptide variant, detection negative: 0; Binding of immunoglobulin for the defined peptide variant, detection positive: +
- Experimental parameters: blocking buffer without addition, 3 h room temperature
Bridge positions count the residues as written; N and C are the ends. Square brackets hold non-standard residues; d marks the D form. Ends that are not written are not given here. cellulose = not defined here; βAla = NCCC(=O)O
Property measured: Result for incubation with serum albumin (immunoglobulin binding detection)

• 07L: cellulose-bound 13-mer variant DCAWHLLELVWCT-(βA)(βA) (DCAWHLLELVWCT-{βAla-βAla-cellulose}; disulfide 2-12 (inferred); not fully specified (N-terminus); printed as DCAWHLLELVWCT-(βA)(βA); reading uncertain) = 0
• 01A: cellulose-bound 13-mer variant ACAWHLGELVWCT-(βA)(βA) (ACAWHLGELVWCT-{βAla-βAla-cellulose}; disulfide 2-12 (inferred); reading uncertain; also: printed as ACAWHLGELVWCT-(βA)(βA)) = 0
• 07N: cellulose-bound 13-mer variant DCAWHLNELVWCT-(βA)(βA) (DCAWHLNELVWCT-{βAla-βAla-cellulose}; disulfide 2-12 (inferred); not fully specified (N-terminus); printed as DCAWHLNELVWCT-(βA)(βA); reading uncertain) = 0
• 04C: cellulose-bound 13-mer variant DCACHLGELVWCT-(βA)(βA) (DCACHLGELVWCT-{βAla-βAla-cellulose}; disulfide (positions not given here); not fully specified (bridges); printed as DCACHLGELVWCT-(βA)(βA); reading uncertain) = 0
• 03V: cellulose-bound 13-mer variant DCVWHLGELVWCT-(βA)(βA) (DCVWHLGELVWCT-{βAla-βAla-cellulose}; disulfide 2-12 (inferred); reading uncertain; also: printed as DCVWHLGELVWCT-(βA)(βA)) = 0
• 07K: cellulose-bound 13-mer variant DCAWHLKELVWCT-(βA)(βA) (DCAWHLKELVWCT-{βAla-βAla-cellulose}; disulfide 2-12 (inferred); not fully specified (N-terminus); printed as DCAWHLKELVWCT-(βA)(βA); reading uncertain) = 0
• 03G: cellulose-bound 13-mer variant DCGWHLGELVWCT-(βA)(βA) (DCGWHLGELVWCT-{βAla-βAla-cellulose}; disulfide 2-12 (inferred); reading uncertain; also: printed as DCGWHLGELVWCT-(βA)(βA)) = 0
• 09M: cellulose-bound 13-mer variant DCAWHLGEMVWCT-(βA)(βA) (DCAWHLGEMVWCT-{βAla-βAla-cellulose}; disulfide 2-12 (inferred); reading uncertain; also: printed as DCAWHLGEMVWCT-(βA)(βA)) = 0
• 08Y: cellulose-bound 13-mer variant DCAWHLGYLVWCT-(βA)(βA) (DCAWHLGYLVWCT-{βAla-βAla-cellulose}; disulfide 2-12 (inferred); reading uncertain; also: printed as DCAWHLGYLVWCT-(βA)(βA)) = 0
• 02L: cellulose-bound 13-mer variant DLAWHLGELVWCT-(βA)(βA) (DLAWHLGELVWCT[βAla][βAla]; not fully specified; printed as DLAWHLGELVWCT-(βA)(βA); also: cellulose-bound) = 0
• 07D: cellulose-bound 13-mer variant DCAWHLDELVWCT-(βA)(βA) (DCAWHLDELVWCT-{βAla-βAla-cellulose}; disulfide 2-12 (inferred); not fully specified (N-terminus); printed as DCAWHLDELVWCT-(βA)(βA); reading uncertain) = 0
• 01R: cellulose-bound 13-mer variant RCAWHLGELVWCT-(βA)(βA) (RCAWHLGELVWCT-{βAla-βAla-cellulose}; disulfide 2-12 (inferred); reading uncertain; also: printed as RCAWHLGELVWCT-(βA)(βA)) = 0
• 03M: cellulose-bound 13-mer variant DCMWHLGELVWCT-(βA)(βA) (DCMWHLGELVWCT-{βAla-βAla-cellulose}; disulfide 2-12 (inferred); reading uncertain; also: printed as DCMWHLGELVWCT-(βA)(βA)) = 0
• 04V: cellulose-bound 13-mer variant DCAVHLGELVWCT-(βA)(βA) (disulfide 2-12 (inferred); not fully specified (N-terminus, C-terminus); printed as DCAVHLGELVWCT-(βA)(βA); also: cellulose-bound) = 0

###

- Tested on: human IgG-Fc
- Assay overview: Cellulose-immobilized 13-mer peptide variants incubated with human IgG-Fc, anti-human IgG-AP detection
- Assay type: binding
- Design: key: No binding of immunoglobulin for the defined peptide variant, detection negative: 0; Binding of immunoglobulin for the defined peptide variant, detection positive: +
- Experimental parameters: IgG-Fc 1 μg/ml in blocking buffer, 3 h room temperature
Bridge positions count the residues as written; N and C are the ends. Square brackets hold non-standard residues; d marks the D form. Ends that are not written are not given here. cellulose = not defined here; βAla = NCCC(=O)O
Property measured: Result for incubation with human IgG-Fc (immunoglobulin binding detection)

• 09R: cellulose-bound 13-mer variant DCAWHLGERVWCT-(βA)(βA) (DCAWHLGERVWCT-{βAla-βAla-cellulose}; disulfide 2-12 (inferred); reading uncertain; also: printed as DCAWHLGERVWCT-(βA)(βA)) = +
• 09A: cellulose-bound 13-mer variant DCAWHLGEAVWCT-(βA)(βA) (DCAWHLGEAVWCT-{βAla-βAla-cellulose}; disulfide 2-12 (inferred); reading uncertain; also: printed as DCAWHLGEAVWCT-(βA)(βA)) = 0
• 06A: cellulose-bound 13-mer variant DCAWHAGELVWCT-(βA)(βA) (DCAWHAGELVWCT[βAla][βAla]; disulfide 2-12 (inferred); not fully specified (N-terminus); printed as DCAWHAGELVWCT-(βA)(βA); also: cellulose-bound) = +
• 09P: cellulose-bound 13-mer variant DCAWHLGEPVWCT-(βA)(βA) (DCAWHLGEPVWCT-{βAla-βAla-cellulose}; disulfide 2-12 (inferred); reading uncertain; also: printed as DCAWHLGEPVWCT-(βA)(βA)) = +
